Each item that follows carries a reported growth inhibition.
# Method: NCI Yeast Anticancer Drug Screen. Data for the mec2-1 strain (AID 157)
# Study conditions: S. cerevisiae mec2-1 strain, at 3.7 µM, hits give high values
The panel holds about 79,000 compounds, 15% with a hit somewhere; the sample as a whole holds those more often.
The reply should contain only the number, in %.

Please review the following examples before continuing.
# Compound, growth inhibition, %
measured = [
    ("O=C(CCCN1CCC2(CC1)CC(=O)N(N1CCCCCC1)C2=O)c1ccc(F)cc1", 28),
    ("CCOC(=O)[C@H]1Nc2ccccc2C2c3ccccc3CC21 (stereo partly drawn)", -12),
    ("O=[N+]([O-])c1ccc([N+]2=NC(c3ccccc3)=NN(c3ccccc3)C2)cc1", -2),
    ("Cc1cc(O)cc(O)c1N=Nc1ccc([N+](=O)[O-])cc1", 8),
]

--- query ---
Note to self: growth inhibition recorded for CCCCCCCCCCNC(=O)OCC was -5

All values here come from PubChem BioAssay (NCI).
